src = patent US9382254B2

target: CFTR ΔF508 mutant (Homo sapiens, UniProt P13569, DEL508-508); construct: expressed in transfected cells; host or cells: CFBE41o- (adenoviral transduction); experiment: YFP-halide influx assay for the CFTR-ΔF508 mutation (384 well, FDSS/μCell); format: cell-based; conditions: CFBE41o- cells, CFTR-ΔF508, 1×D-PBS, fluorescence after 36 seconds
Sequence (P13569 with tags, fused parts or gaps DEL508-508): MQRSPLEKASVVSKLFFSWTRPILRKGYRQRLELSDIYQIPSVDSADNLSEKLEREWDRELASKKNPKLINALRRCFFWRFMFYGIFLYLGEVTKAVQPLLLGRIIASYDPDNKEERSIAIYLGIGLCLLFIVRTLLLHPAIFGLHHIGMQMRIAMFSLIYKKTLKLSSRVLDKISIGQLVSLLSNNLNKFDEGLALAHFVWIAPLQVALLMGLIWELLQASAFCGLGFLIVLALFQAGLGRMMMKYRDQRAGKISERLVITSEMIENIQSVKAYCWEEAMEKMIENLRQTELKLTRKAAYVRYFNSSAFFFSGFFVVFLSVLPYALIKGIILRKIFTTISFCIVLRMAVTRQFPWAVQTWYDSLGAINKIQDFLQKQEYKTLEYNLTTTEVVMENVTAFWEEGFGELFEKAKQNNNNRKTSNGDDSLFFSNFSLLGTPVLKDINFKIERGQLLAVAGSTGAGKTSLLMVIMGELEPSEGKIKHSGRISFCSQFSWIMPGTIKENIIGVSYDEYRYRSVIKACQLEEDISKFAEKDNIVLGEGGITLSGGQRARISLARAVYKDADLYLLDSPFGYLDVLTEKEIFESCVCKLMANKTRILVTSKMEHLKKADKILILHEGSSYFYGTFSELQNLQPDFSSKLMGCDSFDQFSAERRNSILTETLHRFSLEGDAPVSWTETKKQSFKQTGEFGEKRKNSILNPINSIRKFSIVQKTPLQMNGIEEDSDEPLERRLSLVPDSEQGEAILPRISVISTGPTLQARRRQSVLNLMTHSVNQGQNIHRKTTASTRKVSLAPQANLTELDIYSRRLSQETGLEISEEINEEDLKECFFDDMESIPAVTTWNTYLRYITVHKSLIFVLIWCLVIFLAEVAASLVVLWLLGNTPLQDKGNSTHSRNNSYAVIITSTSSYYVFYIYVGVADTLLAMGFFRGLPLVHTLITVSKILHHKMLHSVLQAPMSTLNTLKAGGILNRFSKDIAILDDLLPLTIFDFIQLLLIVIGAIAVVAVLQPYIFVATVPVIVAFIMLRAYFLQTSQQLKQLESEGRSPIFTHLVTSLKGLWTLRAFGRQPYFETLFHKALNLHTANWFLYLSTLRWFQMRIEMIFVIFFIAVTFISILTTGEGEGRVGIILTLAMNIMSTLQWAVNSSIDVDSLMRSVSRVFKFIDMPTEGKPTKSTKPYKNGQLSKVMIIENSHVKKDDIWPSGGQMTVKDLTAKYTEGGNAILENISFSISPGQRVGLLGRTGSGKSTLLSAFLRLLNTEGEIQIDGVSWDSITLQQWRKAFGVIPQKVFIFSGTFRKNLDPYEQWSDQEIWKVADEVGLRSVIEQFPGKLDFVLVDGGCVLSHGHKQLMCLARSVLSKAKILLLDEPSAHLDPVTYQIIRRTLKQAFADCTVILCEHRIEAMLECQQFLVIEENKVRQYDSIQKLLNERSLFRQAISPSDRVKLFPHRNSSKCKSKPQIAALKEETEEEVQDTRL
Rule: measured EC50 below 30 nM gets criterion met; anything equal to or greater than 30 nM gets criterion not met.

{"molecule": "NC(=O)c1cc(S(=O)(=O)N2CCC(F)(F)CC2)sc1NC(=O)c1c(O)cc(F)cc1F [Compound 214]", "target-desc": "CFTR ΔF508 mutant (Homo sapiens, UniProt P13569, DEL508-508)", "label": "criterion met"}
{"molecule": "CC(C)(O)C(=O)Nc1sc(S(=O)(=O)c2cccc(OC(F)(F)F)c2)cc1C(N)=O [Compound 269]", "target-desc": "CFTR ΔF508 mutant (Homo sapiens, UniProt P13569, DEL508-508)", "label": "criterion met"}
{"molecule": "NC(=O)c1cc(S(=O)(=O)c2ccc(F)cc2)sc1NC(=O)C1CCCCC1O (stereo not shown) [Compound 280]", "target-desc": "CFTR ΔF508 mutant (Homo sapiens, UniProt P13569, DEL508-508)", "label": "criterion not met"}
{"molecule": "COc1cc(S(=O)(=O)c2cc(C(N)=O)c(NC(=O)C(C)(C)O)s2)c(OC(F)F)cn1 [Compound 418]", "target-desc": "CFTR ΔF508 mutant (Homo sapiens, UniProt P13569, DEL508-508)", "label": "criterion met"}
{"molecule": "CC(C)(O)C(=O)Nc1sc(S(=O)(=O)c2nc(C(F)(F)F)ccc2C(F)(F)F)cc1C(N)=O [Compound 412]", "target-desc": "CFTR ΔF508 mutant (Homo sapiens, UniProt P13569, DEL508-508)", "label": "criterion met"}
{"molecule": "Cc1ccc(C(F)(F)F)c(S(=O)(=O)c2cc(C(N)=O)c(NC(=O)C(C)(C)O)s2)n1 [Compound 413]", "target-desc": "CFTR ΔF508 mutant (Homo sapiens, UniProt P13569, DEL508-508)", "label": "criterion met"}
{"molecule": "CC(C)(C)C(O)C(=O)Nc1sc(S(=O)(=O)c2ccc(OC(F)(F)F)cc2)cc1C(N)=O (stereo not shown) [Compound 349]", "target-desc": "CFTR ΔF508 mutant (Homo sapiens, UniProt P13569, DEL508-508)", "label": "criterion not met"}
{"molecule": "Cc1c(S(=O)(=O)c2ccccc2)sc(NC(=O)c2cc[nH]n2)c1C(N)=O [Compound 101]", "target-desc": "CFTR ΔF508 mutant (Homo sapiens, UniProt P13569, DEL508-508)", "label": "criterion met"}
{"molecule": "CC(C)(O)C(=O)Nc1sc(S(=O)(=O)c2ccc(C#N)cc2)cc1C(N)=O [Compound 381]", "target-desc": "CFTR ΔF508 mutant (Homo sapiens, UniProt P13569, DEL508-508)", "label": "criterion not met"}
{"molecule": "COc1ccc(CN(C)S(=O)(=O)c2cc(C(N)=O)c(NC(=O)c3cc[nH]n3)s2)cc1 [Compound 171]", "target-desc": "CFTR ΔF508 mutant (Homo sapiens, UniProt P13569, DEL508-508)", "label": "criterion not met"}
{"molecule": "CC(C)(O)C(=O)Nc1sc(S(=O)(=O)c2ccc(C(F)(F)F)nc2)cc1C(N)=O [Compound 389]", "target-desc": "CFTR ΔF508 mutant (Homo sapiens, UniProt P13569, DEL508-508)", "label": "criterion not met"}
{"molecule": "Cc1c(S(=O)(=O)c2ccccc2)sc(NC(=O)c2ccccc2F)c1C(N)=O [Compound 87]", "target-desc": "CFTR ΔF508 mutant (Homo sapiens, UniProt P13569, DEL508-508)", "label": "criterion not met"}
{"molecule": "CC(C)(O)C(=O)Nc1sc(S(=O)(=O)c2ccc(F)cc2Cl)cc1C(N)=O [Compound 286]", "target-desc": "CFTR ΔF508 mutant (Homo sapiens, UniProt P13569, DEL508-508)", "label": "criterion met"}
{"molecule": "Cc1c(S(=O)(=O)c2ccc(C(F)(F)F)cc2F)sc(NC(=O)C(C)(C)O)c1C(N)=O [Compound 439]", "target-desc": "CFTR ΔF508 mutant (Homo sapiens, UniProt P13569, DEL508-508)", "label": "criterion met"}
{"molecule": "CC(C)(O)C(=O)Nc1sc(S(=O)(=O)c2c(F)cc(F)cc2OC(F)F)cc1C(N)=O [Compound 405]", "target-desc": "CFTR ΔF508 mutant (Homo sapiens, UniProt P13569, DEL508-508)", "label": "criterion met"}
{"molecule": "COc1ccc(C(F)(F)F)c(S(=O)(=O)c2cc(C(N)=O)c(NC(=O)C(C)(C)O)s2)n1 [Compound 420]", "target-desc": "CFTR ΔF508 mutant (Homo sapiens, UniProt P13569, DEL508-508)", "label": "criterion met"}
{"molecule": "CC(O)C(=O)Nc1sc(S(=O)(=O)c2ccc(Cl)cc2)cc1C(N)=O (single isomer, unassigned; enantiomer 1) [Compound 347]", "target-desc": "CFTR ΔF508 mutant (Homo sapiens, UniProt P13569, DEL508-508)", "label": "criterion met"}
{"molecule": "CC(C)(O)C(=O)Nc1sc(S(=O)(=O)c2ccc3c(c2)OC(F)(F)O3)cc1C(N)=O [Compound 310]", "target-desc": "CFTR ΔF508 mutant (Homo sapiens, UniProt P13569, DEL508-508)", "label": "criterion not met"}
{"molecule": "CN1COCc2cc(S(=O)(=O)c3cc(C(N)=O)c(NC(=O)C(C)(C)O)s3)ccc21 [Compound 434]", "target-desc": "CFTR ΔF508 mutant (Homo sapiens, UniProt P13569, DEL508-508)", "label": "criterion not met"}
{"molecule": "CC(C)N(C(C)C)S(=O)(=O)c1cc(C(N)=O)c(NC(=O)c2ccccc2F)s1 [Compound 154]", "target-desc": "CFTR ΔF508 mutant (Homo sapiens, UniProt P13569, DEL508-508)", "label": "criterion not met"}
{"molecule": "CC(O)C(=O)Nc1sc(S(=O)(=O)c2c(F)cccc2F)cc1C(N)=O (stereo not shown) [Compound 313]", "target-desc": "CFTR ΔF508 mutant (Homo sapiens, UniProt P13569, DEL508-508)", "label": "criterion not met"}
{"molecule": "C[C@H](O)C(=O)Nc1sc(S(=O)(=O)c2c(Cl)cccc2Cl)cc1C(N)=O [Compound 314]", "target-desc": "CFTR ΔF508 mutant (Homo sapiens, UniProt P13569, DEL508-508)", "label": "criterion met"}
{"molecule": "C[C@H](O)C(=O)Nc1sc(S(=O)(=O)c2ccc(C(F)(F)F)cc2F)cc1C(N)=O [Compound 445]", "target-desc": "CFTR ΔF508 mutant (Homo sapiens, UniProt P13569, DEL508-508)", "label": "criterion met"}
{"molecule": "C[C@H](O)C(=O)Nc1sc(S(=O)(=O)c2ccc(F)cc2C(F)(F)F)cc1C(N)=O (single isomer, unassigned; enantiomer 1) [Compound 348]", "target-desc": "CFTR ΔF508 mutant (Homo sapiens, UniProt P13569, DEL508-508)", "label": "criterion met"}
{"molecule": "CCc1cc(C(=O)Nc2sc(S(=O)(=O)c3ccc(F)c(F)c3)cc2C(N)=O)n[nH]1 [Compound 119]", "target-desc": "CFTR ΔF508 mutant (Homo sapiens, UniProt P13569, DEL508-508)", "label": "criterion not met"}
{"molecule": "NC(=O)c1cc(S(=O)(=O)N2CCC(F)(F)CC2)sc1NC(=O)C1(O)CCC1 [Compound 213]", "target-desc": "CFTR ΔF508 mutant (Homo sapiens, UniProt P13569, DEL508-508)", "label": "criterion not met"}
{"molecule": "NC(=O)c1cc(S(=O)(=O)c2ccc(F)cc2)sc1NC(=O)C1(O)CC1 [Compound 224]", "target-desc": "CFTR ΔF508 mutant (Homo sapiens, UniProt P13569, DEL508-508)", "label": "criterion not met"}
{"molecule": "CC1CN(S(=O)(=O)c2cc(C(N)=O)c(NC(=O)c3ccccc3C(F)(F)F)s2)CC(C)O1 (stereo not shown) [Compound 258]", "target-desc": "CFTR ΔF508 mutant (Homo sapiens, UniProt P13569, DEL508-508)", "label": "criterion not met"}
{"molecule": "CC(O)C(=O)Nc1sc(S(=O)(=O)c2ccc(OC(F)(F)F)cc2)cc1C(N)=O (stereo not shown) [Compound 318]", "target-desc": "CFTR ΔF508 mutant (Homo sapiens, UniProt P13569, DEL508-508)", "label": "criterion met"}
{"molecule": "CC(C)[C@H](O)C(=O)Nc1sc(S(=O)(=O)c2ccc(F)cc2Cl)cc1C(N)=O [Compound 361]", "target-desc": "CFTR ΔF508 mutant (Homo sapiens, UniProt P13569, DEL508-508)", "label": "criterion met"}
{"molecule": "COc1ccc(S(=O)(=O)c2cc(C(N)=O)c(NC(=O)C(C)(C)O)s2)c(OC(F)F)c1 [Compound 284]", "target-desc": "CFTR ΔF508 mutant (Homo sapiens, UniProt P13569, DEL508-508)", "label": "criterion not met"}
